- Test method notes: physchem
- Cond: organic solvent or mixture, Mean Drug Solubility (± standard deviation), HFA 227ea
Metric name: solubility (µg/mL)
Give your result in µg/mL as a bare value.

Request: Report solubility, nothing else, for this compound: CN1CCC[C@H]1c1cccnc1
Result: 19.8

====

- Test method notes: physchem
- Cond: organic solvent or mixture
Metric name: solubility

Request: Give the value of solubility reported for the following: CN1CCC[C@H]1c1cccnc1
Result: ≥ 0.01 mg/mL

====

- Test method notes: physchem
- Cond: organic solvent or mixture, Mean Drug Solubility (± standard deviation), HFO 1234ze
Metric name: solubility

Request: Quickly give me recorded solubility for CN1CCC[C@H]1c1cccnc1
Result: 41.5 µg/mL
